Data origin, for the record: patent US20050282739A1

A collection of binders and their measured % Inhibition at 1 µM
assayed-target: T1, melanocortin-1 receptor (MC1-R) of B-16 mouse melanoma cells (mouse, UniProt Q01727 1-315)
T1 construct: whole, on cells; membranes prepared from the cells were used; also called Melanocortin Receptor 1
T1 sequence (Q01727 whole entry): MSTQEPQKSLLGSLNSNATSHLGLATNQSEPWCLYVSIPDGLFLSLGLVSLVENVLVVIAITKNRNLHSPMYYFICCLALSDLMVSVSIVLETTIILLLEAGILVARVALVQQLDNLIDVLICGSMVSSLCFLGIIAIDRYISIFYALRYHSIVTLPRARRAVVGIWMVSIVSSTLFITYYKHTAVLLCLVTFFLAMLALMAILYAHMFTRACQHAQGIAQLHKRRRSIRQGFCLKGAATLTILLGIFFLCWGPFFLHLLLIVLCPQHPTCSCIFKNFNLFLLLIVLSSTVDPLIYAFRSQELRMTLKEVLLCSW
experiment-description: 125I-NDP-α-MSH competition, B-16 membranes
Square brackets hold non-standard residues; d marks the D form. Ends that are not written are not given here. Nle = CCCC[C@H](N)C(=O)O
State just the number; it will be interpreted in %.

# binder, % Inhibition at 1 µM, %
rows = [
    ("Ac-SYS[Nle]EHFRWG[dC]KPV-NH2 (also: oxorhenium(V) N3S1 chelate at D-Cys11) [metallopeptide 2-4]", 91),
    ("YV[Nle]GHFRWDCRF-NH2 (also: oxorhenium(V) N3S1 chelate: C10 SG + backbone N of W8, D9, C10, bridge at 10 via Re(V)=O, other end not in the chain) [metallopeptide 4-3]", 44),
    ("Ac-SYSMEHFRWGKPV-NH2 (not complexed to Re; also called α-MSH analog) [α-MSH parent polypeptide Ac-Ser-Tyr-Ser-Met-Glu-His-Phe-Arg-Trp-Gly-Lys-Pro-Val-NH2]", 99),
]

IN: Which % Inhibition at 1 µM reading was recorded for the binder Ac-SYS[Nle]EHFR[dC]WGKPV-NH2 (also: oxorhenium(V) N3S1 chelate at D-Cys9) [metallopeptide 2-6] ?
OUT: 46

IN: Fill in the blank: the reported % Inhibition at 1 µM of Ac-SYS[Nle]EHFRWGK[dC]PV-NH2 (also: oxorhenium(V) N3S1 chelate at D-Cys12) [metallopeptide 2-3] is ____.
OUT: 91

IN: Any idea what % Inhibition at 1 µM was measured for Ac-SYS[Nle]E[dC]HFRWGKPV-NH2 (also: oxorhenium(V) N3S1 chelate at D-Cys 6) [metallopeptide 2-9] ?
OUT: 92

IN: I would be grateful if you could share the reported % Inhibition at 1 µM for YV[Nle]GHFRCWDRF-NH2 (also: oxorhenium(V) N3S1 chelate: C8 SG + backbone N of F6, R7, C8, bridge at 8 via Re(V)=O, other end not in the chain) [metallopeptide 4-5] .
OUT: 89

IN: Name the reported % Inhibition at 1 µM value associated with the binder YV[Nle]GHFRWDRCF-NH2 (also: oxorhenium(V) N3S1 chelate: C11 SG + backbone N of D9, R10, C11, bridge at 11 via Re(V)=O, other end not in the chain) [metallopeptide 4-2]
OUT: 75

IN: Query (binder): Ac-SYS[Nle]EH[dC]FRWGKPV-NH2 (also: oxorhenium(V) N3S1 chelate at D-Cys 7) [metallopeptide 2-8] ; field requested: % Inhibition at 1 µM
OUT: 69
